Every entry's value here was drawn from patent US20220229058A1.

Molecular target: norovirus GII.17 Saitama strain virus-like particle (VLP) (norovirus GII.17 Saitama strain)
Assay: BLI (BLItz), biotinylated peptide on SA chip, VLP in solution
Where no end group is shown, it is not given here.
Measured metric: Kd (µM)

Binder: YVIRNSDRHN (also: biotinylated, residue not given here, spacer sequence added, letters and position not given here) [norovirus-binding peptide of SEQ ID NO: 43]
Experimental value: 234
//
Binder: VVGFGRRSLF (also: biotinylated, residue not given here, spacer sequence added, letters and position not given here) [norovirus-binding peptide of SEQ ID NO: 156]
Experimental value: 234
//
Binder: YRRSKSEIFV (also: biotinylated, residue not given here, spacer sequence added, letters and position not given here) [norovirus-binding peptide of SEQ ID NO: 59]
Experimental value: 0.383
//
Binder: KYRATICHTV (also: biotinylated, residue not given here, spacer sequence added, letters and position not given here) [norovirus-binding peptide of SEQ ID NO: 52]
Experimental value: 0.0179
